Target: Fuc(a1-2)[Gal(a1-3)]Gal(b1-4)[Fuc(a1-3)]Glc
Experiment: glycan array binding signal (z-score within array); higher = stronger binding
Details: glycan notation: IUPAC condensed, linker removed
Only a selection was taken, and the strongest signals are over-represented in it overall.

binder: Pwp5 ND (Candida glabrata) (protein) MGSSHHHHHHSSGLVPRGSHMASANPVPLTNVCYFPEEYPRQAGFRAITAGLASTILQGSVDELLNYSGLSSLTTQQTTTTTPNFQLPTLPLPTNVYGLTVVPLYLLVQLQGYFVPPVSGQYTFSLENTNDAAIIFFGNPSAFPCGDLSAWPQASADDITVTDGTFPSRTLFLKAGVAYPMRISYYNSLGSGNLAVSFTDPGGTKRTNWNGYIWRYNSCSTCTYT
glycan array binding signal (z-score): -0.527
//
binder: Apa (Mycobacterium tuberculosis), Rv1860 (protein) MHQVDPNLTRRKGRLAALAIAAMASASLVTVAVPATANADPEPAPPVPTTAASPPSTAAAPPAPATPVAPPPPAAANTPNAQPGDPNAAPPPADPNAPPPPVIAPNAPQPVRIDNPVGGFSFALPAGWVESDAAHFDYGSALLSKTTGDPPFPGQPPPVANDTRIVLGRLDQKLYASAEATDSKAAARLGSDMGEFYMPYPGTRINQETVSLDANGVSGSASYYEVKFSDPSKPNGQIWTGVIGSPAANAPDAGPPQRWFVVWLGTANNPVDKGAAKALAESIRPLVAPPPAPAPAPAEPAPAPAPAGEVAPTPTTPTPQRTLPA
glycan array binding signal (z-score): -0.318
